Cited source for all entries: the supplement of paper PMC12645437

# Assayed Target: T1, CRBN, Q96SW2;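 further: pooled lentiviral library of zinc finger degron-EGFP fusions in mCherry-positive Jurkat cells, FACS-sorted after compound exposure, with degron abundance counted by next-generation sequencing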
# T1 chain: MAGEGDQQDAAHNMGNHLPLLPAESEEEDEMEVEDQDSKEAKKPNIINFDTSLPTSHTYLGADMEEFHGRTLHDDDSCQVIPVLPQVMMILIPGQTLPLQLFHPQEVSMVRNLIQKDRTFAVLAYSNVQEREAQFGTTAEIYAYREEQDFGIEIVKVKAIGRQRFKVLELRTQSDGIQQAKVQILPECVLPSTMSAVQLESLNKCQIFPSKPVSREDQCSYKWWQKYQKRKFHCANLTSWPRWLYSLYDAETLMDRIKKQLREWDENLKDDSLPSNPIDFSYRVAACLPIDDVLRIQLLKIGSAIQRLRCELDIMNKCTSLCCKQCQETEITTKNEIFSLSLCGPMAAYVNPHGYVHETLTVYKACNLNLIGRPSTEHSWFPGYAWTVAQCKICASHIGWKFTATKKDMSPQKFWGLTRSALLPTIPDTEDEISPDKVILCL
# Method Summary: log2 fold change of degron read counts, EGFP-low vs EGFP+ sorted cells (limma voom), compound-induced degradation; higher = more compound-induced degradation of the degron-EGFP fusion; degrons are variants of IKZF1/3 zinc finger 2; compound dose not given here
# Experimental Conditions: Jurkat; 18 h; compound: thalidomide
The full ranking holds about 8,300 sequences; the median of “log2 fold change of degron read counts, EGFP-low vs EGFP+ sorted cells (limma voom), compound-induced degradation” is about -1.1, and the highest 2% start at about 3.2. For the sample, the highest values were picked, then their nearest neighbours and some sequences at random.
# binarize log2 fold change of degron read counts: threshold -0.1 inclusive, high side class 1, low side class 0

LACEICGFCCTQKGNLLRHIKL [46L_47A_49E_50I_52G_53F_54C_55C_67L_, Q9UKT9] : class 0
LLCNQCGFQCTQKGNLLRHIKL [46L_47L_49N_50Q_52G_53F_54Q_55C_67L_, Q9UKT9] : class 0
LQCEICGFSCTQKGNLLRHIKL [46L_47Q_49E_50I_52G_53F_54S_55C_67L_, Q9UKT9] : class 1
LNCEICGFCCTQKGNLLRHIKL [46L_47N_49E_50I_52G_53F_54C_55C_67L_, Q9UKT9] : class 0

Shifting focus to the sequence that follows.
Ask: Hi, just wondering whether FVCPICGATFTQKGNLLRHIKL [46F_47V_49P_50I_52G_53A_54T_55F_67L_, Q9UKT9] shows log2 fold change of degron read counts of -0.1 or higher.
Result: class 1
